# assay-target: T1, His-SPL7 (SBP domain) (Arabidopsis, UniProt Q8S9G8 122-228)
# T1 sequence: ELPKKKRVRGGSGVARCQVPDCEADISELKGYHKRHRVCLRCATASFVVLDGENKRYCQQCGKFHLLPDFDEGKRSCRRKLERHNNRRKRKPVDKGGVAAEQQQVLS
# protocol-summary: EMSA; Chemiluminescent EMSA Kit (Beyotime), manufacturer's protocol; buffer, salt, pH and temperature not stated
# test-parameters: protein: recombinant; tags: 6xHis (pET-28a); label: 5' biotin (probe); blunt

{"binder": "ProCOPT2-G (dsDNA) DNA 1: GATGATGTACTTGTACTACAGTACAACACATAC DNA 2: GTATGTGTTGTACTGTAGTACAAGTACATCATC", "binding result": "binds"}
{"binder": "ProFRO4-G (dsDNA) DNA 1: ACCCGTACAACGTATTCGTTACGAACCAATTTCTA DNA 2: TAGAAATTGGTTCGTAACGAATACGTTGTACGGGT", "binding result": "binds"}
{"binder": "ProCITF1-G (dsDNA) DNA 1: CCATTTGTACTGCATAAAGACCCCCCACGTACATACAT DNA 2: ATGTATGTACGTGGGGGGTCTTTATGCAGTACAAATGG", "binding result": "binds"}
{"binder": "ProFRO5-G (dsDNA) DNA 1: CTATCATGTACGTTTTTAAGAGTTTCGTACAAATTCACGT DNA 2: ACGTGAATTTGTACGAAACTCTTAAAAACGTACATGATAG", "binding result": "binds"}
